Just for reference, patent US20230416394A1 is where these values come from.

Biological target: T1, human CD39 (human, UniProt P49961 1-510)
T1 sequence: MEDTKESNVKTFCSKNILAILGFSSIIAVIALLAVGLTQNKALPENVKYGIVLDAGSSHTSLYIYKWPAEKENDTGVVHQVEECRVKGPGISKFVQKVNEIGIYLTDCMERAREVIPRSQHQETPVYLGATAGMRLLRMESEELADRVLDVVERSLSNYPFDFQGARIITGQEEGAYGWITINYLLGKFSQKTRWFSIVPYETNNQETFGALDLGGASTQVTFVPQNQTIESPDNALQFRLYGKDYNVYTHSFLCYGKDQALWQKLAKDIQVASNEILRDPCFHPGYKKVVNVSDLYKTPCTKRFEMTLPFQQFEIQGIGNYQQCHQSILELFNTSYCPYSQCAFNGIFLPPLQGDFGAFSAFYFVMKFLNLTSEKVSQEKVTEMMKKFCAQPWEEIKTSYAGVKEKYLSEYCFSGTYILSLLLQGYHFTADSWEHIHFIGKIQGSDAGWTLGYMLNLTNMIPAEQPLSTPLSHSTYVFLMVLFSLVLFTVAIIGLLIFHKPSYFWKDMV
Experiment: cell-based or functional assay
endpoint_name: ATPase inhibition on SK-MEL-28 cells, IC50 (nM)
Enter your answer as a number in nM; do not include the unit.

[[record]]
binder = "hu23.H5L6 (antibody, V domains shown) VH: QVQLVQSGAEVKKPGASVKVSCKASGYNLKDTFLHWVRQAPGQGLEWMGRIDPANGNIKYDPKFQGRVTITADTSANTAYMELISLRSEDTAVYYCANSPYYYGSGYRIFDVWGQGTTVTVSS VL: QIVLTQSPATLSASPGERATLSCSAFSSVNYMHWYQQKPGQAPKLLIYTTSNLASGVPTRFSGSGSGTSYTLTISSMEPEDFAVYYCQQRSTYPFTFGQGTKLEIK"
u = "nM"
assay_value = 0.13

[[record]]
binder = "hu23.203 (antibody, V domains shown) VH: QVQLVQSGAEVKKPGASVKVSCKASGYTLKDTFLHWVRQAPGQRLEWMGRIDPANGNIKYDPKFQGRVTLTADTSSNTAYMELSSLRSEDTAVYYCANSPYYYGSGYRIFDVWGQGTLVTVSS VL: EIVLTQSPATLTLSPGERATLSCSAFSSVNYMHWYQQKPGQAPRLLIYTTSNLASGIPARFSGSGSGTDYTLTISSLEPEDFAVYYCQQRSTYPFTFGQGTKLEIK"
u = "nM"
assay_value = 0.32


Continue with the binder presented below.
Returns the measured ATPase inhibition on SK-MEL-28 cells, IC50 for the input binder. Input: hu23.H7L5 (antibody, V domains shown) VH: EVQLVQSGAEVKKPGASVKLSCKASGYNLKDTFLHWVKQAPGQGLEWIGRIDPANGNIKYDPKFQGKATLTADTSANTAYLELISLRSEDTAVYYCANSPYYYGSGYRIFDVWGQGTTVTVSS VL: QIVLTQSPATLSLSPGERATLSCSAFSSVNYMHWYQQKPGQAPRLLIYTTSNLASGIPTRFSGSGSGTSYTLTISSLEPEDFAVYYCQQRSTYPFTFGQGTKLEIK 0.144
